Provenance of the data: ChEMBL document CHEMBL1127531

Target sequence: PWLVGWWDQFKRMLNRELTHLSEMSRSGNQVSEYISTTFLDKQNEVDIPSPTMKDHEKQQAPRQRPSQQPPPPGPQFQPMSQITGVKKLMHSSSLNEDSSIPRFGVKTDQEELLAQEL
pIC50: −log10 of the molar value.
Give t when the value for pIC50 is at least 7. Give f when it is less.

COMPOUND	CATEGORY
COc1ccc(C(=O)Nc2c(Cl)cncc2Cl)cc1OC1CC2CCC1C2 (stereo in doubt; (+)16g)	t
COc1ccc(C(=O)Nc2c(Br)cncc2Br)cc1OC1CCCC1	t
COc1ccc(C(=O)Nc2cccc(C)c2)cc1OC1CCCC1	f
COc1ccc(C(=O)Nc2ccccc2[N+](=O)[O-])cc1OC1CCCC1	f
COc1ccc(C(=O)Nc2c(C)nsc2C#N)cc1OC1CCCC1	f
COc1ccc(C(=O)Nc2ccccc2Cl)cc1OC1CCCC1	f
COc1ccc(C(=O)Nc2c(Cl)ncnc2Cl)cc1OC1CCCC1	f
COc1ccc(C(=O)Nc2cnccn2)cc1OC1CCCC1	f
COc1ccc(C(=O)Nc2ncccc2C)cc1OC1CCCC1	f
COc1ccc(C(=O)Nc2c(Cl)c(F)nc(F)c2Cl)cc1OC1CCCC1	t
COc1ccc(C(=O)Nc2c(F)cccc2F)cc1	f
COc1ccc(C(=O)Nc2ccccc2Cl)cc1OC(=O)C1CCCC1	f
COc1ccc(C(=O)Nc2ccccc2Cl)cc1OC(=O)c1ccccc1	f
COc1ccc(C(=O)Nc2ccccc2C(F)(F)F)cc1OC1CCCC1	f
COc1ccc(C(=O)Nc2cc(Cl)ccc2Cl)cc1OC1CCCC1	f
COc1ccc(C(=O)Nc2ccccc2C)cc1OC1CCCC1	f
COc1ccc(C(=O)Nc2c(Br)cccc2Br)cc1OC1CCCC1	f
COc1ccc(C(=O)Nc2ccccc2)cc1OC1CCCC1	f
COc1ccc(C(=O)Nc2c(Cl)c[n+]([O-])cc2Cl)cc1OC1CCCC1	t
COc1ccc(C(=O)Nc2ccccc2Cl)cc1OC(=O)C(C)(C)C	f
COc1ccc(C(=O)Nc2ccccc2C(C)=O)cc1OC1CCCC1	f
COc1ccc(C(=O)Nc2c(C)nsc2C)cc1OC1CCCC1	f
COc1ccc(C(=O)Nc2ccccc2SC)cc1OC1CCCC1	f

----------
Recorded IC50 by entry
EXPERIMENTAL SYSTEM: Phosphodiesterase 4A (Sus scrofa)
Sequence (O77823 whole entry): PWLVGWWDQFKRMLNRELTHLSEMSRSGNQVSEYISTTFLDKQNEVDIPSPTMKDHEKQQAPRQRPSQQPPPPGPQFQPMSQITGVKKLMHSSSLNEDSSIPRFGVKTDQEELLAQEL
OBSERVABLE: IC50 (nM)

SMILES RECORD	VALUE MODIFIER	VALUE
COc1ccc(C(=O)Nc2c(C)nsc2Br)cc1OC1CCCC1	=	500
COc1ccc(C(=O)Nc2ccccc2C#N)cc1OC1CCCC1	=	2500
COc1ccc(C(=O)Nc2ccccc2Cl)cc1OC	=	650
COc1ccc(C(=O)Nc2c(Cl)cccc2Cl)cc1OC1CCCC1	=	23
COc1ccc(C(=O)Nc2nccs2)cc1OC1CCCC1	=	6500
COc1ccc(C(=O)Nc2ccc(C)cc2)cc1OC1CCCC1	>	200000

----------
System: Cavia porcellus
ASSAY DETAILS: In vivo bronchodilator effect on histamine-induced bronchospasm in anaesthetized guinea pigs at 50 ug intravenous dose
Type: functional

COMPOUND	EXPERIMENTAL SYSTEM	Reduction [%]
COc1ccc(C(=O)Nc2c(Cl)c[n+]([O-])cc2Cl)cc1OC1CCCC1	Cavia porcellus	45
COc1ccc(C2CNC(=O)C2)cc1OC1CCCC1 (centres undefined) [ROLIPRAM]	Cavia porcellus	58
COc1ccc(C(=O)Nc2c(Cl)cncc2Cl)cc1OC1CCCC1	Cavia porcellus	78
COc1ccc(C(=O)Nc2c(Cl)cncc2Cl)cc1OC1CC2CCC1C2 (racemic)	Cavia porcellus	35

----------
Recorded Duration by entry
Tested on: Cavia porcellus
ASSAY DETAILS: In vivo bronchodilator effect on histamine-induced bronchospasm in anaesthetized guinea pigs at 100 ug intravenous dose
Assay type: functional

COMPOUND	EXPERIMENTAL SYSTEM	Duration, min
CCCCOc1cc(C(=O)Nc2c(Cl)cncc2Cl)ccc1OC	Cavia porcellus	34
COc1ccc(C(=O)Nc2c(Cl)cncc2Cl)cc1OC1CC2CCC1C2 (racemic)	Cavia porcellus	59
COc1ccc(C(=O)Nc2c(Cl)cccc2Cl)cc1OC1CCCC1	Cavia porcellus	34
COc1ccc(C(=O)Nc2c(F)cccc2F)cc1OC1CCCC1	Cavia porcellus	18
COc1ccc(C(=O)Nc2c(C)cccc2C)cc1OC1CCCC1	Cavia porcellus	16
COc1ccc(C(=O)Nc2c(Cl)c[n+]([O-])cc2Cl)cc1OC1CCCC1	Cavia porcellus	39
COc1ccc(C(=O)Nc2ccccc2Cl)cc1OC1CCCC1	Cavia porcellus	27

----------
Tested on: Cavia porcellus
ASSAY DETAILS: In vivo bronchodilator effect on histamine-induced bronchospasm in anaesthetized guinea pigs at 100 ug intravenous dose
Type: functional
Recorded Reduction by entry

COMPOUND	EXPERIMENTAL SYSTEM	Reduction (%)
COc1ccc(C(=O)Nc2c(Cl)cccc2Cl)cc1OC1CCCC1	Cavia porcellus	48
COc1ccc(C(=O)Nc2ccccc2Cl)cc1OC1CCCC1	Cavia porcellus	43
COc1ccc(C(=O)Nc2c(Cl)c[n+]([O-])cc2Cl)cc1OC1CCCC1	Cavia porcellus	54
COc1ccc(C(=O)Nc2c(Cl)cncc2Cl)cc1OC1CC2CCC1C2 (racemic)	Cavia porcellus	80
CCCCOc1cc(C(=O)Nc2c(Cl)cncc2Cl)ccc1OC	Cavia porcellus	52
COc1ccc(C(=O)Nc2c(F)cccc2F)cc1OC1CCCC1	Cavia porcellus	29
COc1ccc(C(=O)Nc2c(C)cccc2C)cc1OC1CCCC1	Cavia porcellus	24

----------
EXPERIMENTAL SYSTEM: Phosphodiesterase 4 (Homo sapiens, UniProt P27815+Q08499+Q07343+Q08493)
ASSAY DETAILS: Inhibition of solubilized eosinophil PDE IV
Format: protein assay, Cavia porcellus
OBSERVABLE: IC50

MOLECULE	VALUE
COc1ccc(C(=O)Nc2c(C)cccc2C)cc1OC1CCCC1	65 nM
COc1ccc(C(=O)Nc2c(Cl)cccc2Cl)cc1OC1CCCC1	5 nM
COc1ccc(C(=O)Nc2c(Cl)cncc2Cl)cc1OC1CC2CCC1C2 (racemic)	0.5 nM
CCCCOc1cc(C(=O)Nc2c(Cl)cncc2Cl)ccc1OC	2.5 nM
COc1ccc(C(=O)Nc2c(F)cccc2F)cc1OC1CCCC1	18 nM
COc1ccc(C(=O)Nc2ccncc2Cl)cc1OC1CCCC1	2 nM
COc1ccc(C(=O)Nc2ccccc2Cl)cc1OC1CCCC1	51 nM
COc1ccc(C(=O)Nc2c(Cl)c[n+]([O-])cc2Cl)cc1OC1CCCC1	2 nM
COc1ccc(C(=O)Nc2ccccc2)cc1OC1CCCC1	145 nM

----------
EXPERIMENTAL SYSTEM: Phosphodiesterase 1 (Sus scrofa)
ASSAY DETAILS: Inhibitory potency against pig aortic PDE I.
Recorded IC50 by entry

SMILES RECORD	IC50
COc1ccc(C(=O)Nc2ccccc2C(F)(F)F)cc1OC1CCCC1	> 1000 µM
COc1ccc(C(=O)Nc2c(F)cccc2Cl)cc1OC1CCCC1	> 1000 µM
COc1ccc(C(=O)Nc2ccccc2SC)cc1OC1CCCC1	> 200 µM
COc1ccc(C(=O)Nc2ccccc2Cl)cc1OC1CCCC1	> 200 µM
COc1ccc(C(=O)Nc2ccccc2Br)cc1OC1CCCC1	> 1000 µM
COc1ccc(C(=O)Nc2ccc(F)cc2)cc1OC1CCCC1	> 1000 µM
COc1ccc(C(=O)Nc2cccc(Cl)c2)cc1OC1CCCC1	> 40 µM
COc1ccc(C(=O)Nc2ccccc2F)cc1OC1CCCC1	> 1000 µM
COc1ccc(C(=O)Nc2ccc(C)cc2)cc1OC1CCCC1	> 200 µM
COc1ccc(C(=O)Nc2ccc(Cl)cc2)cc1OC1CCCC1	> 1000 µM
COc1ccc(C(=O)Nc2c(C)cccc2Cl)cc1OC1CCCC1	> 1000 µM
COC(=O)c1ccccc1NC(=O)c1ccc(OC)c(OC2CCCC2)c1	> 40 µM
COc1ccc(C(=O)Nc2cccc(Cl)c2Cl)cc1OC1CCCC1	> 200 µM
COc1ccc(C(=O)Nc2ccccc2C)cc1OC1CCCC1	> 1000 µM
COc1ccc(C(=O)Nc2c(F)cccc2F)cc1OC1CCCC1	> 1000 µM
COc1ccc(C(=O)Nc2ccccc2C(=O)c2ccccc2)cc1OC1CCCC1	> 40 µM
COc1ccc(C(=O)Nc2ccccc2O)cc1OC1CCCC1	> 200 µM

----------
EXPERIMENTAL SYSTEM: UniProtKB O77823
Sequence (O77823 whole entry): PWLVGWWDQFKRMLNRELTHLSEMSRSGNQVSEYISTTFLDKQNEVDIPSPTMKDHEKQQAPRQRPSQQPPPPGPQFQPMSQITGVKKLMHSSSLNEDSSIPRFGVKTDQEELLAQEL
ASSAY DETAILS: Inhibitory potency against pig aortic PDE IV

SMILES RECORD	IC50 / nM
COc1ccc(C(=O)Nc2c(F)cccc2F)cc1OC1CCCC1	70
COc1ccc(C(=O)Nc2c(F)cnc(F)c2F)cc1OC1CCCC1	85
COc1ccc(C(=O)Nc2c(Cl)cncc2Cl)cc1OC	100
